Reported values: IC50 for Dihydroorotate dehydrogenase (quinone), mitochondrial [30-395] (Homo sapiens), one per item.

The examples below pair each entry with its known result.
molecule | IC50
Cc1cc(Nc2ccc3ccccc3c2)n2ncnc2n1 [JMC521864 Compund DSM1] | > 200 µM
Cc1cc(Nc2ccccc2)n2ncnc2n1 [JMC521864 Compund DSM12] | > 200 µM

Moving on to the next molecule.
IC50 recorded for this molecule, `Cc1cc(Nc2ccc3cc4ccccc4cc3c2)n2ncnc2n1` , is > 200 µM
